The measurements presented in this section are drawn from ChEMBL document CHEMBL3132745.

# assay_name: Selectivity index, ratio of cytotoxicity against human SKOV3 cells to IC50 for Cryptococcus neoformans ATCC 90113
# Assay type: toxicity, cell-based, SK-OV-3
# condition_summary: read-out: Selectivity Index
assay_metric: selectivity ratio

Memo: COC(=O)[C@H](CCCNC(=N)N)NC(=O)[C@H](Cc1c[nH]c(-c2cccc3ccccc23)n1)NC(=O)OC(C)(C)C , reported selectivity ratio: > 8

Further cases:
# compound N[C@@H](Cc1c[nH]c2ccccc12)C(=O)N[C@@H](Cc1c[nH]c(-c2ccc(-c3ccccc3)cc2)n1)C(=O)NCc1ccccc1 ; its selectivity ratio = > 18.5

Item: COC(=O)[C@H](Cc1c[nH]c(-c2ccc(-c3ccccc3)cc2)n1)NC(=O)[C@@H](N)Cc1c[nH]c2ccccc12 | selectivity ratio: > 2.6

Documented selectivity ratio of N[C@@H](Cc1c[nH]c2ccccc12)C(=O)N[C@@H](Cc1c[nH]c(-c2ccccc2)n1)C(=O)NCc1ccccc1 : > 4.9

Form field selectivity ratio, entry COC(=O)[C@H](Cc1c[nH]c(-c2ccccc2)n1)NC(=O)[C@@H](N)Cc1c[nH]c2ccccc12 : > 1.3

Entry Cc1ccc(-c2nc(C[C@H](NC(=O)[C@@H](N)Cc3c[nH]c4ccccc34)C(=O)NCc3ccccc3)c[nH]2)cc1 , selectivity ratio reported as > 1.3

Noted for CC(C)(C)OC(=O)N[C@@H](Cc1c[nH]c(-c2ccc(C(C)(C)C)cc2)n1)C(=O)N[C@@H](CCCNC(=N)N)C(=O)NCc1ccccc1 : its selectivity ratio reads > 4.1

----------
# assay_name: Selectivity index, ratio of cytotoxicity against pig LLC-PK1 cells to IC50 for Cryptococcus neoformans ATCC 90113
# Format: toxicity, cell-based
# condition_summary: read-out: Selectivity Index
selectivity ratio reference

# compound Cc1ccc(-c2nc(C[C@H](NC(=O)[C@@H](N)Cc3c[nH]c4ccccc34)C(=O)NCc3ccccc3)c[nH]2)cc1 ; its selectivity ratio = > 1.3

Given item CC(C)(C)OC(=O)N[C@@H](Cc1c[nH]c(-c2cccc3ccccc23)n1)C(=O)N[C@@H](CCCNC(=N)N)C(=O)NCc1ccccc1 , the value recorded as its selectivity ratio is > 3.6

Recorded result, CC(C)(C)OC(=O)N[C@@H](Cc1c[nH]c(-c2ccc(C(C)(C)C)cc2)n1)C(=O)N[C@@H](CCCNC(=N)N)C(=O)NCc1ccccc1 , selectivity ratio: > 4.1

***
Short answer for N=C(N)NCCC[C@H](NC(=O)[C@@H](N)Cc1c[nH]c(-c2cccc3ccccc23)n1)C(=O)NCc1ccccc1 : selectivity ratio was > 16.1

----------
# System: Staphylococcus aureus
# assay_name: Antibacterial activity against methicillin-resistant Staphylococcus aureus ATCC 33591 assessed as growth inhibition after 16-20 hrs by CLSI method
# Assay type: functional, organism-based
assay_metric: IC50

Sample records with IC50:
So, CC(C)(C)c1ccc(-c2nc(C[C@H](NC(=O)[C@@H](N)Cc3c[nH]c4ccccc34)C(=O)NCc3ccccc3)c[nH]2)cc1 ? Its IC50 was Not Active

Value of measured IC50 for the entry COC(=O)[C@H](Cc1c[nH]c(-c2ccc(-c3ccccc3)cc2)n1)NC(=O)[C@H](Cc1c[nH]c2ccccc12)NC(=O)OC(C)(C)C : Not Active

Lab note: measured IC50 of CC(C)(C)OC(=O)N[C@@H](Cc1c[nH]c2ccccc12)C(=O)N[C@@H](Cc1c[nH]c(-c2ccc(C(C)(C)C)cc2)n1)C(=O)NCc1ccccc1 was Not Active

For this molecule ( COC(=O)[C@H](Cc1c[nH]c(-c2ccc(C(C)(C)C)cc2)n1)NC(=O)[C@H](Cc1c[nH]c2ccccc12)NC(=O)OC(C)(C)C ), measured IC50 is Not Active

***
Sure, the documented IC50 for CC(C)(C)c1ccc(-c2nc(C[C@H](N)C(=O)N[C@@H](CCCNC(=N)N)C(=O)NCc3ccccc3)c[nH]2)cc1 is Not Active

# IC50 (molecule: N=C(N)NCCC[C@H](NC(=O)[C@@H](N)Cc1c[nH]c(-c2ccc(-c3ccccc3)cc2)n1)C(=O)NCc1ccccc1 ) is Not Active
